# tested on: human CSNK1D tagged with nanoluciferase (Homo sapiens (Human))
# Sequence (P48730 whole entry): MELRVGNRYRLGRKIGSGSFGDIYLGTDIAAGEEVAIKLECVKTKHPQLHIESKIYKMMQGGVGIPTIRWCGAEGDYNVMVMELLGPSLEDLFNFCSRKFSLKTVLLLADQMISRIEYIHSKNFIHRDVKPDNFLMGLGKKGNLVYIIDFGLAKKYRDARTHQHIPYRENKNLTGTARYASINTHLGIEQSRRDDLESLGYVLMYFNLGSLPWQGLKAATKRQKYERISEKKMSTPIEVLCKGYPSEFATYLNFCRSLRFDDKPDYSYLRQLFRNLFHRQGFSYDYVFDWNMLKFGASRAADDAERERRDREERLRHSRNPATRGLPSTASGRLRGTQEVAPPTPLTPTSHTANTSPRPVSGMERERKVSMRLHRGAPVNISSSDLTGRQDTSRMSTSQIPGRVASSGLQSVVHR
# protocol text: Whole Cell nBRET CSNK1D Binding Assay
# experimental parameters: living CHO cells stably expressing human CSNK1D-nanoluciferase; NanoBret tracer 130 nM; 2 hours 37° C.; read-out: CSNK1D BRET IC50
pIC50: −log10 of the molar value.
test readout: pIC50

// solved cases for pIC50 follow
* Cn1cnc(-c2nn(C)cc2-c2ccnc3[nH]ccc23)c1 | 6.25
* Cc1cc(-c2cn(C)nc2-c2ccc(Cl)cn2)c2cn[nH]c2n1 | 5.68
* Cn1cc(-c2ccnc3cccnc23)c(-c2ccc(F)cn2)n1 | 5.34
* Cn1cc(-c2ccnc3[nH]cc(Br)c23)c(-c2ccc(F)cn2)n1 | 7.62
* Cn1cc(-c2ccnc3cnccc23)c(-c2ccc(F)cn2)n1 | 6.02
* COc1ccc2ncc(F)c(-c3cn(C)nc3-c3ccc(F)cn3)c2n1 | 6.10

[I] Cn1cc(-c2ccnc3[nH]cc(C(F)(F)F)c23)c(-c2ccc(F)cn2)n1
[II] Cn1cc(-c2ccnc3[nH]c(C4(O)CCOC4)cc23)c(-c2ccc(F)cn2)n1 (racemic)
[III] Cc1cnc2[nH]ccc2c1-c1cn(C)nc1-c1ccc(F)cn1
Input line: Order these by pIC50, descending, and give the full ranking. Write the labels out in the order the request specifies.
Output line: III, II, I
(III: 7.28, II: 6.83, I: 5.98)

###

# tested on: human recombinant GST cleaved CSNK1D (Homo sapiens (Human), UniProt P48730)
# Sequence (P48730 whole entry): as above
# protocol text: Purified enzyme assay (ADP-Glo Kinase Assay)
# Type: biochemical
# experimental parameters: 2 nM CSNK1D, peptide substrate 150 μM, ATP 20 μM, 45 minutes room temperature
# Description: In this assay, CSNK1D phosphorylates a substrate peptide PLSRTL-pS-VASLPGL in the presence of ATP. […] This assay monitors CSNK1D kinase activity by measuring the amount of ADP produced in the assay. […] ADP was quantified using the ADP-Glo™ Kinase Assay. […] Luminescence was measured on the Perkin Elmer Wallac EnVision 2104 Multi-label Reader. […]
test readout: AC50 (nM)

Example entries and their recorded answers appear below.
• Cn1cc(-c2ccnc3cc(F)cnc23)c(-c2ccc(F)cn2)n1 = 73
• Cc1cc(-c2cn(C)nc2-c2ccncc2C)c2cn[nH]c2n1 = 1040
• Cc1cc(-c2nn(C)cc2-c2cc(C)nc3[nH]ncc23)ccn1 = 168
• CCn1ncc2cc(-c3cn(C)nc3-c3ccc(F)cn3)cnc21 = 43
• Cn1cc(-c2ccnc3[nH]ccc23)c(-c2ccc(Cl)cn2)n1 = 34
• Cn1cc(-c2ccnc3[nH]ccc23)c(-c2cccc(F)n2)n1 = 7
• Cn1cc(-c2ccnc3[nH]cc(C4COC4)c23)c(-c2ccc(F)cn2)n1 = 123
• COc1cccc(-c2nn(C)cc2-c2cc(C)nc3[nH]ncc23)n1 = 100

[P] Cc1ccc(-c2nn(C)cc2-c2ccnc3[nH]ncc23)nc1
[Q] COc1ccc2c(-c3cn(C)nc3-c3ccc(F)cn3)ccnc2c1
[R] Cn1cc(-c2ccnc3[nH]cc(C(F)(F)F)c23)c(-c2ccc(F)cn2)n1
[S] Cn1cc(-c2c(C(F)(F)F)cnc3[nH]ccc23)c(-c2ccc(F)cn2)n1
Input line: List the 4 entries from lowest AC50 to highest AC50 value. API: response body holds the labels in the requested order.
Output line: S, Q, R, P
(S: 4 nM, Q: 13 nM, R: 48 nM, P: 128 nM)
